target-system: HER2 YVMA (Homo sapiens, UniProt P04626, INS775YVMA)
Sequence (P04626 with tags, fused parts or gaps INS775YVMA): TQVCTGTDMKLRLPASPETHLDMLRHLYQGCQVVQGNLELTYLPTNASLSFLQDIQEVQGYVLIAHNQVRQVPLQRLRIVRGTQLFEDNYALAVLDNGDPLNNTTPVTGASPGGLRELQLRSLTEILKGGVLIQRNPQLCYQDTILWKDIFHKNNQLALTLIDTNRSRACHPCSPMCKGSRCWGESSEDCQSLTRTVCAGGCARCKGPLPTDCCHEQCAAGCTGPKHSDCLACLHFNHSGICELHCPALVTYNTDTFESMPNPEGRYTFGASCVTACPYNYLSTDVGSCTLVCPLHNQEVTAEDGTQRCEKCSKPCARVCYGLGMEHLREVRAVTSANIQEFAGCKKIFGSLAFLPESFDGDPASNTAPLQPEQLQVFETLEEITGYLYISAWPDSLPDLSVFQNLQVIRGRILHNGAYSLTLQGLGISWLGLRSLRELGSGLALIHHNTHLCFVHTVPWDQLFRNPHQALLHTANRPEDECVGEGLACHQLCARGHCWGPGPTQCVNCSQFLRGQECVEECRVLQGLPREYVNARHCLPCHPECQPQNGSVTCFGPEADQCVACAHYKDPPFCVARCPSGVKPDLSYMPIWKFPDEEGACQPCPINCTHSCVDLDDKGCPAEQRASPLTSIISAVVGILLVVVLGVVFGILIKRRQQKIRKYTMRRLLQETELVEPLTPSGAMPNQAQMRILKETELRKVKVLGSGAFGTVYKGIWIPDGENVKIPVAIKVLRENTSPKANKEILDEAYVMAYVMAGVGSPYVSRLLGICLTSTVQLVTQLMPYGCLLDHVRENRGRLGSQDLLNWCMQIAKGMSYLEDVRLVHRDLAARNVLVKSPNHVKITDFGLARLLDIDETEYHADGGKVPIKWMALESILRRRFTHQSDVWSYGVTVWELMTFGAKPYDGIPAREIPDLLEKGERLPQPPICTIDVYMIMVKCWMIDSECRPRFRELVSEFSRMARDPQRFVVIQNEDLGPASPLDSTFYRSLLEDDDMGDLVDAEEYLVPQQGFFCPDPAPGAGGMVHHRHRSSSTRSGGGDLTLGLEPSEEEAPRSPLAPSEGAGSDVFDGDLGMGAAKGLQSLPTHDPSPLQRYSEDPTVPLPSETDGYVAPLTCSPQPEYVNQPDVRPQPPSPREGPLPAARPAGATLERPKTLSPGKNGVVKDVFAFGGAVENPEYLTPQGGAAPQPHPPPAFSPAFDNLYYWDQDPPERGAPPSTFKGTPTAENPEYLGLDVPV
procedure-text: pHER2 (ERBB2) YVMA assay: phosphorylation of HER2 YVMA at Tyr1221/1222 in HEK cells (AlphaScreen Surefire)
test-context: doxycycline induced, 4 h with compound
pIC50: −log10 of the molar value.
quantity: pIC50

C#Cc1cc(Nc2ncnc3cnc(NC4CCN(C(=O)C=C)CC4)nc23)ccc1Oc1ccc2c(c1)ncn2C [Example I-15]: 7.92
C=CC(=O)N1CC[C@@H](Nc2ncc3ncnc(Nc4ccc(Oc5ccn6ncnc6c5)c(C)c4)c3n2)C1 [Example I-18]: 8.40
C=CC(=O)NC1(C)CCN(c2ncc3ncnc(Nc4ccc(Oc5ccc6c(c5)ncn6C)c(OC)c4)c3n2)CC1 [Example I-04]: 7.59
C#Cc1cc(Nc2ncnc3cnc(N4CC(NC(=O)C=C)C4)nc23)ccc1Oc1ccn2ncnc2c1 [Example I-10]: 7.62
C=CC(=O)N1CC(Nc2ncc3ncnc(Nc4ccc(Oc5ccn6ncnc6c5)c(C)c4)c3n2)C1 [Example I-19]: 8.10

(A) C=CC(=O)NC1CCN(c2ncc3ncnc(Nc4ccc(Oc5ccc6c(c5)ncn6C)c(Cl)c4)c3n2)CC1 [Example I-05]
(B) C=CC(=O)NC1CN(c2ncc3ncnc(Nc4ccc(Oc5ccc6c(c5)ncn6C)c(Cl)c4)c3n2)C1 [Example I-08]
(C) C=CC(=O)N1CCC(Nc2ncc3ncnc(Nc4ccc(Oc5ccn6ncnc6c5)c(C)c4)c3n2)CC1 [Example I-16]
(D) C=CC(=O)NC1CN(c2ncc3ncnc(Nc4ccc(Oc5cnc6c(c5)ncn6C)c(C)c4)c3n2)C1 [Example I-13]
(E) C=CC(=O)Nc1ccc2ncnc(Nc3ccc(OCc4cccc(F)c4)c(Cl)c3)c2c1 [Allitinib, reference compound]
Sort entries by pIC50 from minimum to maximum value. Submit the labels in the order that the ranking request calls for.
B, D, A, C, E
(B: 7.24, D: 7.55, A: 8.00, C: 8.30, E: 8.52)

(1) C=CC(=O)N1CCC(Nc2ncc3ncnc(Nc4ccc(Oc5ccc6c(c5)ncn6C)c(C)c4)c3n2)CC1 [Example I-14]
(2) Cc1cc(Nc2ncnc3ccc(NC4=NC(C)(C)CO4)cc23)ccc1Oc1ccn2ncnc2c1 [Tucatinib, reference compound]
Determine, for 1 and 2 , which has the greater value of pIC50. # reply format: chosen label
2

(I) C=CC(=O)NC1CCN(c2ncc3ncnc(Nc4ccc(Oc5ccc6c(c5)ncn6C)c(OC)c4)c3n2)CC1 [Example I-03]
(II) C=CC(=O)NC1CCN(c2ncc3ncnc(Nc4cc(F)c(Oc5ccn6ncnc6c5)c(Cl)c4)c3n2)CC1 [Example I-06]
Determine, for I and II , which has the greater value of pIC50. # reply format: chosen label
I

(I) C=CC(=O)NC1CCN(c2ncc3ncnc(Nc4ccc(Oc5ccn6ncnc6c5)c(C)c4)c3n2)CC1 [Example I-11]
(II) C=CC(=O)N1CCC(Oc2cc3c(Nc4ccc(Cl)c(Cl)c4F)ncnc3cc2OC)CC1 [Poziotinib, reference compound]
Determine, for I and II , which has the greater value of pIC50. # reply format: chosen label
II
(II: 8.30, I: 7.66)

(a) C=CC(=O)Nc1ccc2ncnc(Nc3ccc(Oc4ccc5c(c4)ncn5C)c(C)c3)c2c1 [WO 2007/059257 Ex. 185, reference compound]
(b) C=CC(=O)NC1CCN(c2ncc3ncnc(Nc4ccc(Oc5ccn6ccnc6c5)c(C)c4)c3n2)CC1 [Example I-12]
Determine, for a and b , which has the greater value of pIC50. # reply format: chosen label
b

(A) C=CC(=O)NC1CCN(c2ncc3ncnc(Nc4ccc(Oc5ccc6c(c5)ncn6C)c(C)c4)c3n2)CC1 [Example I-01]
(B) C#Cc1cc(Nc2ncnc3cnc(N4CCC(NC(=O)C=C)CC4)nc23)ccc1Oc1ccc2c(c1)ncn2C [Example I-02]
(C) C=CC(=O)N1CC[C@H](Nc2ncc3ncnc(Nc4ccc(Oc5ccn6ncnc6c5)c(C)c4)c3n2)C1 [Example I-17]
Hello, I need these entries ordered by pIC50, highest reading first. Thanks! Submit the labels in the order that the ranking request calls for.
C, A, B
(C: 8.70, A: 7.89, B: 7.47)

(1) C=CC(=O)NC1CN(c2ncc3ncnc(Nc4ccc(Oc5ccc6c(c5)ncn6C)c(C)c4)c3n2)C1 [Example I-07]
(2) C=CC(=O)Nc1cccc(-n2c(=O)c(Oc3ccc(F)cc3F)cc3cnc(Nc4cnn(C)c4)nc32)c1 [WO 2019/046775 Comp. 2, reference compound]
Looking at recorded values for pIC50, does 1 or 2 come in lower? # reply format: chosen label
1
